The measurements presented in this section are drawn from PubChem BioAssay (Tox21).

Assay method text: qHTS assay for small molecule disruptors of the mitochondrial membrane potential (AID 720635)
Test parameters: HepG2 mitochondrial membrane potential, Mito-MPS dye ratio; series mostly up to 83.2 µM
Records with an inconclusive call do not appear. The source made the active and inactive calls. The call rests on the fitted dose curve; in most records, active means well fitted inhibition curve with a large enough effect in the signal ratio in the repeat runs; inconclusive means weak or mixed curves, or effect the other way; inactive means flat fitted curve, though single readings scatter; the % refers to the signal ratio.
Your response should consist of one outcome taken from active, inactive

What classification did Brc1ccc(Br)cc1 end up with in this test?
inactive

What classification did CN(C)P(=O)(N(C)C)N(C)C end up with in this test?
inactive

What classification did CCCCOCCOC(C)=O end up with in this test?
active

What classification did Nc1ncn[nH]1 end up with in this test?
inactive

What classification did CCNCC end up with in this test?
inactive

What classification did CC1CC(=O)O1 (stereo unspecified) end up with in this test?
inactive

What classification did ClCc1ccccn1 end up with in this test?
inactive

What classification did O=P(OCCCl)(OCCCl)OCCCl end up with in this test?
inactive

What classification did CC1(C)C(C(=O)OC(C#N)c2cccc(Oc3ccccc3)c2)C1(C)C (stereo unspecified) end up with in this test?
active

What classification did ClCC(Cl)CCl end up with in this test?
inactive

What classification did N#CCCCCC#N end up with in this test?
inactive

What classification did CC(C)(C#N)N=NC(C)(C)C#N end up with in this test?
inactive

What classification did Cc1ccc(N=CN(C)C=Nc2ccc(C)cc2C)c(C)c1 end up with in this test?
inactive

What classification did NC(=O)CN1CCCC1=O end up with in this test?
inactive

What classification did CCCCCCCCCc1ccc(O)cc1 end up with in this test?
active

What classification did N#CC(c1ccccc1)c1ccccc1 end up with in this test?
active

What classification did C[C@]12CC[C@H]3[C@@H](CCC4=CC(=O)CC[C@@H]43)[C@@H]1CC[C@@H]2O end up with in this test?
inactive

What classification did CC(C)Nc1nc(Cl)nc(NC(C)C)n1 end up with in this test?
inactive

What classification did c1ccc(C2CO2)cc1 (stereo unspecified) end up with in this test?
inactive

What classification did C=CC(=O)OCC(CC)(COC(=O)C=C)COC(=O)C=C end up with in this test?
active

What classification did C[N+](C)(C)CC(=O)[O-] end up with in this test?
inactive

What classification did O=[N+]([O-])/N=C1\NCCN1Cc1ccc(Cl)nc1 end up with in this test?
inactive

What classification did CN(C)c1nc(=O)n(C2CCCCC2)c(=O)n1C end up with in this test?
inactive

What classification did Cc1ccc([N+](=O)[O-])cc1 end up with in this test?
inactive

What classification did NN=C(N)N end up with in this test?
inactive

What classification did CC[n+]1c(-c2ccccc2)c2cc(N)ccc2c2ccc(N)cc21 end up with in this test?
active

What classification did CC(C)=CC1C(C(=O)OCc2cccc(Oc3ccccc3)c2)C1(C)C (stereo unspecified) end up with in this test?
inactive

What classification did O=C1CCCO1 end up with in this test?
inactive

What classification did COc1ccc(CO)cc1 end up with in this test?
inactive

What classification did CCOP(=O)(OCC)OCC end up with in this test?
inactive

What classification did C[C@]12CCC(=O)C=C1CC[C@@H]1[C@@H]2CC[C@@]2(C)[C@H]1CC[C@]2(C)O end up with in this test?
inactive
